- Test target: JAK3 (Homo sapiens)
- Construct: endogenous in cells
- Sequence (P52333 1-1124): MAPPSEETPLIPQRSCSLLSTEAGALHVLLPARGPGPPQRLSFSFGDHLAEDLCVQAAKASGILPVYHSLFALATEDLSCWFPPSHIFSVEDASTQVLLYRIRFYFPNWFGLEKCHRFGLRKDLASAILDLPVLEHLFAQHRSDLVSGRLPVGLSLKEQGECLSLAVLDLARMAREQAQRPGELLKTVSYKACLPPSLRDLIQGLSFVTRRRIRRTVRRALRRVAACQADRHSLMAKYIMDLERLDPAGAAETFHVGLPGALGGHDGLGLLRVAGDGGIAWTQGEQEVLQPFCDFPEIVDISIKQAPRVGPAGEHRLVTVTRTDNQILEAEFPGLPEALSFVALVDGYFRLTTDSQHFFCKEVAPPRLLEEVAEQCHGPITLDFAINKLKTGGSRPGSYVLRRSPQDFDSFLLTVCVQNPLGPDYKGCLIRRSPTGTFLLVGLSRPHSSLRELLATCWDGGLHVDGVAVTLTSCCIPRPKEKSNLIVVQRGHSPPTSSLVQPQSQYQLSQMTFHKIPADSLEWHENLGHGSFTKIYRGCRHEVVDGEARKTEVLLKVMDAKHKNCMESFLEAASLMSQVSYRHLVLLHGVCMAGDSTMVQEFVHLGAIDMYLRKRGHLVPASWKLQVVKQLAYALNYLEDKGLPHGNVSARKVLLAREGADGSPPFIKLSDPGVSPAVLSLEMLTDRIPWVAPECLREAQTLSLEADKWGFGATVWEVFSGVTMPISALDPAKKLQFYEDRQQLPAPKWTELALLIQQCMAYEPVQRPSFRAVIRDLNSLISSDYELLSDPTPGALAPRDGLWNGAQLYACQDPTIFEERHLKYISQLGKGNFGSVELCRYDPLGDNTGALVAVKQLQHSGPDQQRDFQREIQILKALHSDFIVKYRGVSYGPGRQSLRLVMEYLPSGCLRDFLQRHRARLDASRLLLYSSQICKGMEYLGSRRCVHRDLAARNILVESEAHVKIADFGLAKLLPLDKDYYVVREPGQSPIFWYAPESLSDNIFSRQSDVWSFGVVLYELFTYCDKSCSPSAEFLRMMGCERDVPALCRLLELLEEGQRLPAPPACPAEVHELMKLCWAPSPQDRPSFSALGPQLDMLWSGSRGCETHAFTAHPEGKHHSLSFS
- Assay info: Kinobeads assay, JAK3
- Test settings: mixed Molt4/Ramos cell lysate, dot blot detection
- Protocol: The compounds of the present invention as described in the previous examples were tested in a Kinobeads™ assay as described for ZAP-70 (WO-A 2007/137867). […] Bound proteins were then eluted and the presence of JAK2 and JAK3 was detected and quantified using specific antibodies in a dot blot procedure and the Odyssey infrared detection system. Dose response curves for individual kinases were generated and IC50 values calculated. […]
Measured quantity: IC50

Some compounds with known IC50 results, for comparison:
Cn1cc(Nc2ncc3cnn(Cc4cc(F)ccc4Cl)c3n2)cn1: < 100 nM
OCCn1cc(Nc2ncc3cnn(Cc4cc(F)ccc4F)c3n2)cn1: < 100 nM
Cn1cc(Nc2ncc3cnn(Cc4ccccc4OCC4CC4)c3n2)cn1: 100 to 1000 nM
Cn1cc(Nc2ncc3cnn(Cc4cccc(OCCOCc5ccccc5)c4)c3n2)cn1: 100 to 1000 nM

## Task Give the value of IC50 reported for the following: `Cc1nn(CC(F)F)cc1Nc1ncc2cnn(Cc3cc(F)ccc3F)c2n1`
## Result < 100 nM

## Task Give the value of IC50 reported for the following: `Cn1cc(Nc2ncc3cnn(Cc4ccc(F)cc4)c3n2)cn1`
## Result 100 to 1000 nM

## Task Give the value of IC50 reported for the following: `Cn1cc(Nc2ncc3cnn(-c4ccc(C(=O)N5CCOCC5)cc4)c3n2)cn1`
## Result < 100 nM

## Task Give the value of IC50 reported for the following: `Fc1ccc(F)c(Cn2ncc3cnc(Nc4cnn(CC(F)F)c4)nc32)c1F`
## Result < 100 nM

## Task Give the value of IC50 reported for the following: `Cn1cc(Nc2ncc3cnn(Cc4cccc(-c5ccnc(N)c5)c4)c3n2)cn1`
## Result 100 to 1000 nM

All figures here come from patent US9242987B2.
